Estrogen receptor beta (Homo sapiens, UniProt Q92731) EC50 data
Sequence (Q92731 whole entry): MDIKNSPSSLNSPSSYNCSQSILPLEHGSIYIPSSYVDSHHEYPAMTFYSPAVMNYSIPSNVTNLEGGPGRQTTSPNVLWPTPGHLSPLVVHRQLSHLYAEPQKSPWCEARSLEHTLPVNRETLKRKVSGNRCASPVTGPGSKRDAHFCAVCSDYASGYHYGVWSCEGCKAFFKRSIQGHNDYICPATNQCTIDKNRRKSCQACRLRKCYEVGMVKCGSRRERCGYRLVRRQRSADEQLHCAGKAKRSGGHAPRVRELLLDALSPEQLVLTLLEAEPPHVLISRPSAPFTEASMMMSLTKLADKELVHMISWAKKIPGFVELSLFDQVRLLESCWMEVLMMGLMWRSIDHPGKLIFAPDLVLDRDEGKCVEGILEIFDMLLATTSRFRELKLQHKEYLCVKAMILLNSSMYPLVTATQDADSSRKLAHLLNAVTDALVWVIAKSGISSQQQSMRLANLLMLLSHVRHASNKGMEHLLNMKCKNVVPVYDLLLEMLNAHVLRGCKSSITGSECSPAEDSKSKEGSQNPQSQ
# number only, unit nM dropped from output

These solved cases illustrate the format of a correct answer.
compound	measurement.unit	endpoint.result
C#CC(c1ccc(O)cc1)C(C#C)c1ccc(O)cc1 (racemic)	nM	3.7
Oc1ccc(CC(c2ccc(O)cc2)C(F)(F)F)cc1 (stereo not given)	nM	2
N#CC(C#N)(Cc1ccc(O)cc1)c1ccc(O)cc1	nM	21
N#CC[C@H](Cc1ccc(O)cc1)c1ccc(O)cc1	nM	30
N#C/C(=C/c1ccc(O)cc1)c1ccc(O)cc1	nM	220
Oc1ccc(CC(c2ccc(O)cc2)C(F)(F)C(F)(F)F)cc1 (stereo not given)	nM	15
N#CC(c1ccc(O)cc1)C(C#N)c1cccc(O)c1 (stereo not given)	nM	110
COC(=O)C(Cc1ccc(O)cc1)c1ccc(O)cc1 (stereo not given)	nM	4.9
Cc1cc(O)ccc1C(C#N)Cc1ccc(O)cc1 (stereo not given)	nM	1.7
C[C@H](c1ccc(O)cc1)[C@@H](C#N)c1ccc(O)cc1	nM	0.14

Estrogen receptor beta (Homo sapiens, UniProt Q92731) data for `CC[C@H](c1ccc(O)cc1)[C@@H](C#N)c1ccc(O)cc1` ; its EC50: 0.15

Log: Estrogen receptor beta (Homo sapiens, UniProt Q92731), compound N#CC(c1ccc(O)cc1)C(C#N)c1ccc(O)cc1 (stereo in doubt) , EC50 = 0.42

I looked up N#CC(c1ccc(O)cc1)C(C#N)c1ccc(O)cc1 (stereo in doubt; 31a(dl)) and its EC50 for Estrogen receptor beta (Homo sapiens, UniProt Q92731) was 0.41

---

target.or.system: Estrogen receptor beta (Homo sapiens)
measurement.kind: EC50 (nM)
Kindly provide the numeric value in nM only, without the unit symbol.

Looking up CC#CC(Cc1ccc(O)cc1)c1ccc(O)cc1 (configuration not stated) , I see its EC50 listed as 2.1

---

EC50 values recorded for Estrogen receptor beta (Homo sapiens)
Just so you know, I need the unit written after the number.

Here is how some compounds turned out for EC50.
compound	target.or.system	EC50
C#CC(Cc1ccc(O)cc1)c1ccc(O)cc1 (stereo unspecified)	Estrogen receptor beta (Homo sapiens)	1.4 nM
Cc1cc(O)ccc1CC(C#N)c1ccc(O)cc1 (stereo unspecified)	Estrogen receptor beta (Homo sapiens)	0.37 nM

Simply: CC(=O)C(Cc1ccc(O)cc1)c1ccc(O)cc1 (stereo unspecified) , Estrogen receptor beta (Homo sapiens), EC50 = 35 nM

Param item: CC(C#N)(Cc1ccc(O)cc1)c1ccc(O)cc1 (stereo unspecified) ; param system: Estrogen receptor beta (Homo sapiens); output EC50: 8 nM

Entry O=C(C(Cc1ccc(O)cc1)c1ccc(O)cc1)C(F)(F)F (stereo unspecified) under Estrogen receptor beta (Homo sapiens) had EC50 of 160 nM

Tested on Estrogen receptor beta (Homo sapiens), the item `N#C/C(=C\c1ccc(O)cc1)c1ccc(O)cc1` showed EC50 equal to 140 nM
